# Test system: Kidney
# test protocol: Biodistribution in Sprague-Dawley rat kidney assessed per gram of tissue at 1 MBq, iv after 1 hr
# Type: ADME, organism-based
# settings: in vivo
Each record here notes measured Drug uptake.
attribute measured: Drug uptake (%ID)

{"columns": ["compound", "measured value"],
 "data": [
  ["CCN(CC)C(=O)Cc1c(-c2ccc(OCCC[18F])cc2)nc2ccc(Cl)cn12", 3.7],
  ["CCN(CC)C(=O)Cc1c(-c2ccc(OCC[18F])cc2)nn2c(C)cc(C)nc12", 3.5],
  ["CCN(CC)C(=O)Cc1c(-c2ccc(OCC[18F])cc2)nc2ccc(Cl)cn12", 2.7],
  ["CCN(CC)C(=O)Cc1c(-c2ccc(OCCC[18F])cc2)nn2c(C)cc(C)nc12", 4.7]
]}

###

# test protocol: Biodistribution in Sprague-Dawley rat testis assessed per gram of tissue at 1 MBq, iv after 1 hr
# Assay type: ADME, organism-based
# settings: in vivo
Each record here notes measured Drug uptake.
attribute measured: Drug uptake (%ID)

{"columns": ["compound", "measured value"],
 "data": [
  ["CCN(CC)C(=O)Cc1c(-c2ccc(OCCC[18F])cc2)nc2ccc(Cl)cn12", 0.41],
  ["CCN(CC)C(=O)Cc1c(-c2ccc(OCC[18F])cc2)nc2ccc(Cl)cn12", 0.31],
  ["CCN(CC)C(=O)Cc1c(-c2ccc(OCC[18F])cc2)nn2c(C)cc(C)nc12", 0.27],
  ["CCN(CC)C(=O)Cc1c(-c2ccc(OCCC[18F])cc2)nn2c(C)cc(C)nc12", 0.32]
]}

###

Each record here notes measured Drug uptake.
# Test system: Liver
# test protocol: Biodistribution in Sprague-Dawley rat liver assessed per gram of tissue at 1 MBq, iv after 1 hr
# Type: ADME, organism-based
# settings: in vivo
attribute measured: Drug uptake (%ID)

{"columns": ["compound", "system under test", "unit spec", "measured value"],
 "data": [
  ["CCN(CC)C(=O)Cc1c(-c2ccc(OCC[18F])cc2)nc2ccc(Cl)cn12", "Liver", "%ID", 0.35],
  ["CCN(CC)C(=O)Cc1c(-c2ccc(OCCC[18F])cc2)nc2ccc(Cl)cn12", "Liver", "%ID", 0.61],
  ["CCN(CC)C(=O)Cc1c(-c2ccc(OCCC[18F])cc2)nn2c(C)cc(C)nc12", "Liver", "%ID", 0.69],
  ["CCN(CC)C(=O)Cc1c(-c2ccc(OCC[18F])cc2)nn2c(C)cc(C)nc12", "Liver", "%ID", 0.4]
]}

###

# test protocol: Biodistribution in Sprague-Dawley rat testis assessed per gram of tissue at 1 MBq, iv after 0.25 hrs
# Type: ADME, organism-based
# settings: in vivo
attribute measured: Drug uptake

{"columns": ["compound", "measured value"],
 "data": [
  ["CCN(CC)C(=O)Cc1c(-c2ccc(OCCC[18F])cc2)nc2ccc(Cl)cn12", "0.33 %ID"],
  ["CCN(CC)C(=O)Cc1c(-c2ccc(OCC[18F])cc2)nn2c(C)cc(C)nc12 [DPA-714 F-18]", "0.18 %ID"],
  ["CCN(CC)C(=O)Cc1c(-c2ccc(OCC[18F])cc2)nc2ccc(Cl)cn12", "0.17 %ID"],
  ["CCN(CC)C(=O)Cc1c(-c2ccc(OCCC[18F])cc2)nn2c(C)cc(C)nc12", "0.27 %ID"]
]}
